measurement notes: Plasma concentration in nude mouse xenografted with human NCI-H1373 cells at 100 mg/kg, po administered as single dose and measured at 6 hr by LC/MS-MS analysis
Format: ADME, organism-based
measured attribute: concentration at 6 h (nM)
The reply should be a number in nM, with the unit left off.

Given the compound C=CC(=O)N1CC2(CCN(c3nc(OC4CCN(CC)CC4)nc4c(F)c(-c5c(C)ccc6[nH]ncc56)c(Cl)cc34)CC2)C1 , what is its reported concentration at 6 h?
130

* * *

measurement notes: Intrinsic clearance in mouse liver microsomes at 0.1 to 0.2 umol/L measured after 30 mins in presence of NADPH by LC-MS/MS analysis
Format: ADME, Microsome
assay setup: dose 0.1-0.2 µmol/L, read-out: CLH
Please provide measured CLint scaled for the entries that follow.
The reply should be a number in mL/min/kg, with the unit left off.

Given the compound C=CC(=O)N1CC2(CCN(c3nc(OC4CCN(CC)CC4)nc4c(F)c(-c5c(C)ccc6[nH]ncc56)c(Cl)cc34)CC2)C1 , what is its reported CLint scaled?
115

Same question for C=CC(=O)N1CC2(CCN(c3nc(OC4CCN(C)CC4)nc4c(F)c(-c5c(C)ccc6[nH]ncc56)c(Cl)cc34)CC2)C1 please.
115
